experiment: AUC (0 to infinity) in Swiss mouse plasma at 30 mg/kg, po; type: ADME, organism-based; set-up: dose 30 mg/kg, time infinity, route oral
Assay metric: AUC(0-inf) (ng·h/mL)
The reply should contain only the number, in ng·h/mL.

In: Which measured AUC(0-inf) value corresponds to N=C(NCCCOc1ccc(F)cc1)Nc1ccc(Cl)cc1 ?
Out: 480

---

assay: Half life in Swiss mouse plasma at 30 mg/kg, po
Assay metric: half-life

In: Which measured half-life value corresponds to N=C(NCCCOc1ccc(F)cc1)Nc1ccc(Cl)cc1 ?
Out: > 3 h

---

experiment: AUC (0 to infinity) in Swiss mouse plasma at 2 mg/kg, iv; format: ADME, organism-based; set-up: dose 2 mg/kg, time infinity, route intravenous
Assay metric: AUC(0-inf)

In: Which measured AUC(0-inf) value corresponds to N=C(NCCCOc1ccc(F)cc1)Nc1ccc(Cl)cc1 ?
Out: 57 to 71 ng·h/mL

---

test: in vivo; conditions: Swiss, mouse, plasma, po, 30 mg/kg
Assay metric: AUC(0-t)

In: Which measured AUC(0-t) value corresponds to N=C(NCCCOc1ccc(F)cc1)Nc1ccc(Cl)cc1 ?
Out: 414 ng·h/mL

---

The entries below are paired with their reported half-life.
assay: Stability in human liver microsomes; type: ADME, microsome; details: read-out: Stability

Sample answers from the record:
| Input smiles | half-life |
| --- | --- |
| COc1ccc(NC(=N)NCCCOc2ccc(F)cc2)cc1 | 23.2 min |
| N=C(NCCCOc1ccc(F)cc1)Nc1ccc(Cl)cc1 | > 90 min |

Next compound, half-life to be filled in.
In: Which measured half-life value corresponds to N=C(NCCCOc1ccc(F)cc1)Nc1ccc(I)cc1 ?
Out: > 90 min

---

assay: Volume of distribution in Swiss mouse plasma at 2 mg/kg, iv; type: ADME, organism-based
Assay metric: Vd

In: Which measured Vd value corresponds to N=C(NCCCOc1ccc(F)cc1)Nc1ccc(Cl)cc1 ?
Out: 57.6 to 91 L/kg

---

test: in vivo; details: Swiss, mouse, plasma, po, 30 mg/kg
Assay metric: Cmax (nM)
The reply should contain only the number, in nM.

In: Which measured Cmax value corresponds to N=C(NCCCOc1ccc(F)cc1)Nc1ccc(Cl)cc1 ?
Out: 674

---

assay: in vivo; conditions: Swiss, mouse, plasma, po, 30 mg/kg
Assay metric: Tmax (h)
The reply should contain only the number, in h.

In: Which measured Tmax value corresponds to N=C(NCCCOc1ccc(F)cc1)Nc1ccc(Cl)cc1 ?
Out: 1

---

assay: AUC (0 to infinity) in Swiss mouse brain at 10 mg/kg, ip; format: ADME, organism-based; design: dose 10 mg/kg, time infinity, route intraperitoneal
Assay metric: AUC(0-inf) (ng·h/mL)
The reply should contain only the number, in ng·h/mL.

In: Which measured AUC(0-inf) value corresponds to N=C(NCCCOc1ccc(F)cc1)Nc1ccc(Cl)cc1 ?
Out: 856

---

assay: AUC (0 to infinity) in Swiss mouse plasma at 10 mg/kg, po; format: ADME, organism-based; set-up: dose 10 mg/kg, time infinity, route oral
Assay metric: AUC(0-inf) (ng·h/mL)
The reply should contain only the number, in ng·h/mL.

In: Which measured AUC(0-inf) value corresponds to N=C(NCCCOc1ccc(F)cc1)Nc1ccc(Cl)cc1 ?
Out: 141

---

test: in vivo; conditions: Swiss, mouse, plasma, po, 10 mg/kg
Assay metric: Tmax

In: Which measured Tmax value corresponds to N=C(NCCCOc1ccc(F)cc1)Nc1ccc(Cl)cc1 ?
Out: 15 min

---

target: Voltage-gated inwardly rectifying potassium channel KCNH2 (Homo sapiens, UniProt Q12809); experiment: Inhibition of human ERG expressed in CHOK1 cells by Qpatch clamp method
Sequence (Q12809 whole entry): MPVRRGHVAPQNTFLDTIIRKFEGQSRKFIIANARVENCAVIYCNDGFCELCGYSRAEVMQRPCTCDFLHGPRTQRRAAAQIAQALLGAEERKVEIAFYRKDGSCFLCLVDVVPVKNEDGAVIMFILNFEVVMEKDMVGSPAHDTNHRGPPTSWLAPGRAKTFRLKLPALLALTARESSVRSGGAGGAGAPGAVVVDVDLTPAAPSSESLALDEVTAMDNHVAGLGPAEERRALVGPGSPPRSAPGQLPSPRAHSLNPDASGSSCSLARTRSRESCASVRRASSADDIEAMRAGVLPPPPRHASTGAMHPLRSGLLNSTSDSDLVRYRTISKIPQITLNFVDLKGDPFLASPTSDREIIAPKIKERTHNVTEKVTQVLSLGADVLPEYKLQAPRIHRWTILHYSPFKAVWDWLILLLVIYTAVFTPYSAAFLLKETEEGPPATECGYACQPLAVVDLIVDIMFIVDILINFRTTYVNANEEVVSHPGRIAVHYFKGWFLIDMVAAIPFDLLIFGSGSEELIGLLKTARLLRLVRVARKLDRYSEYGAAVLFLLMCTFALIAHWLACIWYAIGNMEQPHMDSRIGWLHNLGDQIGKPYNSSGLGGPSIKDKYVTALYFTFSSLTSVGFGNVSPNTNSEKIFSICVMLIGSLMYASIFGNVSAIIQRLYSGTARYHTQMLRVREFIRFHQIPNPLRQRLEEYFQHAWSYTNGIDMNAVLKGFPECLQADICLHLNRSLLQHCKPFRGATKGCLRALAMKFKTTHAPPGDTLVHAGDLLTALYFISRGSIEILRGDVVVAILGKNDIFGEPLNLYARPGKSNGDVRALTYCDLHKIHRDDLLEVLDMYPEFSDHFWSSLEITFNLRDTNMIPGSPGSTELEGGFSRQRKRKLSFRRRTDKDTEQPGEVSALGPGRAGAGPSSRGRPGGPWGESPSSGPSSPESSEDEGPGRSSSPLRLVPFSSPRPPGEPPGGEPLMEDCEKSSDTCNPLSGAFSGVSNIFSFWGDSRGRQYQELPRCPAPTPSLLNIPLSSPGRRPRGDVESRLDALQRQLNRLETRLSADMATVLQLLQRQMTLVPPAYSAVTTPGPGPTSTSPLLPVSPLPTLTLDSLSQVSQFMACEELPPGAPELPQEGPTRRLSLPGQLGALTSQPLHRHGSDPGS
Assay metric: pIC50
// pIC50 is dimensionless: -log10 of concentration (M)

In: Which measured pIC50 value corresponds to NC(=NC12CC3CC(CC(C3)C1)C2)Nc1ccc(I)cc1 ?
Out: 5.59

---

test: in vivo; details: Swiss, mouse, plasma, po, 10 mg/kg
Assay metric: Cmax

In: Which measured Cmax value corresponds to N=C(NCCCOc1ccc(F)cc1)Nc1ccc(Cl)cc1 ?
Out: 304 nM

---

system: Plasma; details: mouse, in vivo, ip, 10 mg/kg
Assay metric: Cmax (nM)
The reply should contain only the number, in nM.

In: Which measured Cmax value corresponds to N=C(NCCCOc1ccc(F)cc1)Nc1ccc(Cl)cc1 ?
Out: 438

---

test system: Brain; conditions: mouse, in vivo, ip, 10 mg/kg
Assay metric: Cmax
I'd appreciate it if you wrote the number followed by its unit.

In: Which measured Cmax value corresponds to N=C(NCCCOc1ccc(F)cc1)Nc1ccc(Cl)cc1 ?
Out: 2.15 µM

---

assay: Half life in Swiss mouse plasma at 10 mg/kg, po
Assay metric: half-life

In: Which measured half-life value corresponds to N=C(NCCCOc1ccc(F)cc1)Nc1ccc(Cl)cc1 ?
Out: > 3 h

---

test: AUC (0 to infinity) in Swiss mouse plasma at 10 mg/kg, ip; format: ADME, organism-based; design: dose 10 mg/kg, route intraperitoneal, time infinity
Assay metric: AUC(0-inf) (ng·h/mL)
The reply should contain only the number, in ng·h/mL.

In: Which measured AUC(0-inf) value corresponds to N=C(NCCCOc1ccc(F)cc1)Nc1ccc(Cl)cc1 ?
Out: 166

---

target: Sigma non-opioid intracellular receptor 1 (Homo sapiens); assay: Displacement of [125I]-IPAG from sigma1 in human MDA-MB-468 cell membranes
Sequence (Q99720 whole entry): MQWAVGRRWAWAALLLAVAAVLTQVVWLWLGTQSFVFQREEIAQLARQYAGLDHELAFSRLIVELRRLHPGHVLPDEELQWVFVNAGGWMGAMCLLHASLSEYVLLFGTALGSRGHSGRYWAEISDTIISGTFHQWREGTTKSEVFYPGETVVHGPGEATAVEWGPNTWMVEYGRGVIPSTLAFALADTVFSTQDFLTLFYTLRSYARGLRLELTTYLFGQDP
Assay metric: Ki (nM)
The reply should contain only the number, in nM.

In: Value wanted: Ki (Sigma non-opioid intracellular receptor 1 (Homo sapiens)) of entry N=C(Nc1ccc(I)cc1)Nc1ccc(I)cc1
Out: 3

---

assay: Clearance in Swiss mouse plasma at 2 mg/kg, iv
Assay metric: clearance

In: Which measured clearance value corresponds to N=C(NCCCOc1ccc(F)cc1)Nc1ccc(Cl)cc1 ?
Out: 469 to 586 mL/min/kg

---

The entries below are paired with their reported pIC50.
molecular target: Voltage-gated inwardly rectifying potassium channel KCNH2 (Homo sapiens, UniProt Q12809); assay: Inhibition of human ERG
// pIC50 is dimensionless: -log10 of concentration (M)

Sample answers from the record:
| Input smiles | Observed measurement |
| --- | --- |
| NC(=NC12CC3CC(CC(C3)C1)C2)Nc1ccc(I)cc1 | 6.31 |
| N=C(NCCCOc1ccc(F)cc1)Nc1ccc(I)cc1 | 6.96 |

Next molecule, pIC50 to be filled in.
In: Which measured pIC50 value corresponds to COc1ccc(NC(=N)NCCCOc2ccc(F)cc2)cc1 ?
Out: 6.38
